ASSAYED TARGET: hAT1R (Homo sapiens, UniProt P30556)
Sequence (P30556 whole entry): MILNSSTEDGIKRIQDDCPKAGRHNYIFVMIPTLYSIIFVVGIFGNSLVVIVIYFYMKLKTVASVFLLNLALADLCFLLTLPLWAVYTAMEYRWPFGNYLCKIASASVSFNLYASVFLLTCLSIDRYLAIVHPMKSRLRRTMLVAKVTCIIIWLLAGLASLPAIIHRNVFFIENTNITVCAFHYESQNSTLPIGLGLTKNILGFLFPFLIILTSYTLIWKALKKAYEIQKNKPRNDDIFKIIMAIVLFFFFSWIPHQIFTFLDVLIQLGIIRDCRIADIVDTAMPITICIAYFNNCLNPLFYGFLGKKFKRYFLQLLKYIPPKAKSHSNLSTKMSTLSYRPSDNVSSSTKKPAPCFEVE
RUN DESCRIPTION: BRET β-arrestin2 biosensor assay, higher receptor expression (hAT1R 5 ng/well), HEK293 cells
Format: cell-based
# if value of BRET β-Arrestin2 High AT1R Expression Ymax (%) reaches 90%, tag class 1; if it stays below, tag class 0

Solved cases (3 shown):
CCCCC(=O)N(Cc1ccc(-c2cc(-c3ccc(NC(C)=O)cc3)ccc2-c2nn[nH]n2)cc1)C1(C(=O)O)CCCCC1 [Example 291]    class 0
CCCCc1ncc(C(=O)NCc2ccccn2)n1Cc1ccc(-c2cc(-c3ccccc3)ccc2-c2nn[nH]n2)cc1 [Example 371]    class 1
CCCCc1ncc(C(=O)Nc2ccc(C)nn2)n1Cc1ccc(-c2cc(-c3ccccc3)ccc2-c2nn[nH]n2)cc1 [Example 376]    class 0

Decide: is the reported value of BRET β-Arrestin2 High AT1R Expression Ymax (%) for CCc1nc2c(C)cc(C)nc2n1Cc1ccc(-c2cc(N3CCCC(F)(F)C3)ccc2-c2nn[nH]n2)cc1 [Example 83] equal to or greater than 90%?
class 0

Decide: is the reported value of BRET β-Arrestin2 High AT1R Expression Ymax (%) for CCCCOC(=O)NS(=O)(=O)c1sc(-c2ccccc2)cc1-c1ccc(Cn2c(CC)nc3c(C)cc(C)nc32)cn1 [Example 50] equal to or greater than 90%?
class 0
